tested on: A498 renal; experiment: NCI-60 one-dose screen, 48 h; conditions: 10 µM
The panel holds about 83,000 compounds, 20% with a hit somewhere; the sample as a whole holds those more often. Activity calls are given as the source filed them. The calls were made as follows: active = growth percent below 10; inactive = the rest.
Possible outcomes: T (active), F (inactive)

compound=Fc1ccc(-c2csc(Nc3cccc(Nc4nc(-c5ccc(F)cc5)cs4)c3)n2)cc1 tested_on="A498 renal" assigned_class=F
compound=Fc1ccc(/C=C/c2nc3ccccc3n3c(-c4ccc(Cl)cc4)nnc23)cc1 tested_on="A498 renal" assigned_class=F
compound=COc1ccccc1-n1cc(C#N)c(N)c1C(=O)c1ccc(Cl)cc1Cl tested_on="A498 renal" assigned_class=T
compound="O=C1NC2C=CC=CC2/C1=C1/SC(=S)N(C2CC(=O)N(c3ccc(Br)cc3)C2=O)C1=O (centres undefined)" tested_on="A498 renal" assigned_class=F
compound=COc1cc(Nc2nc(O)c(/C=C3\C=Nc4ccccc43)s2)cc(OC)c1OC tested_on="A498 renal" assigned_class=T
compound=CCOc1ccc(/C=N/NC(=O)Cn2nc(Cc3ccc(OC)cc3)c3onc(C)c3c2=O)cc1 tested_on="A498 renal" assigned_class=F
compound=C#C[C@]1(O)CC[C@H]2[C@@H]3CC=C4c5sc(Nc6ccc(N(C)C)cc6)nc5CC[C@]4(C)[C@H]3CC[C@@]21C tested_on="A498 renal" assigned_class=T
compound=Cc1ccc2c(c1)C(=O)/C(=C/c1c[nH]c3ccccc13)S2 tested_on="A498 renal" assigned_class=F
compound="CC1[C@H]2[C@H](C[C@H]3[C@@H]4CC=C5c6sc(Nc7cccc(Cl)n7)nc6CC[C@]5(C)[C@H]4CC[C@@]32C)O[C@]12CC[C@@H](C)CO2 (some centres undefined)" tested_on="A498 renal" assigned_class=F

---

system: SNB-19 CNS; experiment: NCI-60 one-dose screen, 48 h (100 = growth as untreated, 0 = no growth, -100 = all killed); details: 10 µM
About 83,000 compounds went through this panel and 20% of them were active in at least one assay; those are over-represented in the sample as a whole.
METRIC: growth (%)

smiles_notation=O=C(Nc1ccc(OCc2ccc(Cl)cc2)cc1)Nc1ccc(Cl)c(C(F)(F)F)c1 tested_on="SNB-19 CNS" unit_of_measurement=% measured_result=11
smiles_notation=O=[N+]([O-])c1cccc(-c2nnc3c(/C=C/c4ccccc4O)nc4ccccc4n23)c1 tested_on="SNB-19 CNS" unit_of_measurement=% measured_result=87
smiles_notation=O=C(Nc1ccc(Oc2ncnc3scc(Nc4n[nH]c(=S)s4)c23)cc1)C1(C(=O)Nc2cccc(C(F)(F)F)c2)CC1 tested_on="SNB-19 CNS" unit_of_measurement=% measured_result=99.6
smiles_notation=COc1ccc(-n2c(SCC(=O)NNS(=O)(=O)c3ccccc3)nc3ccc(Cl)cc3c2=O)cc1 tested_on="SNB-19 CNS" unit_of_measurement=% measured_result=98.6
smiles_notation=C#C[C@]1(O)CC[C@H]2[C@@H]3CC=C4c5sc(Nc6ccc(N(C)C)cc6)nc5CC[C@]4(C)[C@H]3CC[C@@]21C tested_on="SNB-19 CNS" unit_of_measurement=% measured_result=18.1
smiles_notation=Cn1cc(-c2cc3nc(-c4c[nH]c5ccccc45)cc(N)n3n2)c2cc(Cl)ccc21 tested_on="SNB-19 CNS" unit_of_measurement=% measured_result=-78.2
smiles_notation=Fc1ccc(-c2csc(Nc3cccc(Nc4nc(-c5ccc(F)cc5)cs4)c3)n2)cc1 tested_on="SNB-19 CNS" unit_of_measurement=% measured_result=70.2
smiles_notation=COc1ccc(Cc2nn(CC(=O)N/N=C/c3ccc(Br)cc3)c(=O)c3c(C)noc23)cc1 tested_on="SNB-19 CNS" unit_of_measurement=% measured_result=21.6

---

test system: HCC-2998 colon; assay: NCI-60 one-dose screen, 48 h (100 = growth as untreated, 0 = no growth, -100 = all killed); details: 10 µM
About 83,000 compounds went through this panel and 20% of them were active in at least one assay; those are over-represented in the sample as a whole.
METRIC: growth (%)

molecule="CC1(C)CC[C@]2(C(=O)O)CC[C@]3(C)C(=CCC4[C@@]5(C)C[C@@H](O)[C@@H]6OC(c7cccc(F)c7)OC[C@@]6(C)C5CC[C@]43C)C2C1 (stereo partly drawn)" measured_result=37.5
molecule="O=C1NC2C=CC=CC2/C1=C1/SC(=S)N(C2CC(=O)N(c3ccc(Br)cc3)C2=O)C1=O (stereo not drawn)" measured_result=99.3
molecule=Cc1cc(N=C2NC(=O)/C(=C/c3cc(C(C)(C)C)c(O)c(C(C)(C)C)c3)S2)n[nH]1 measured_result=22.5
molecule=COc1ccc(Cn2cc(C#N)c(N)c2C(C)=O)c(OC)c1 measured_result=106
molecule="C#CCOc1cc(N(CC)CC)ccc1C(C(=O)NC(C)(C)C)N(C(=O)C1CCc2cc(F)ccc2O1)c1ccc(F)cc1F (stereo not drawn)" measured_result=78.1
molecule=CCOc1ccc(/C=N/NC(=O)Cn2nc(Cc3ccc(OC)cc3)c3onc(C)c3c2=O)cc1 measured_result=-11.5
molecule="CCOC(=O)c1ccc(NC(=O)CSC(CC(=O)c2sc(Nc3ccccn3)nc2C)c2ccccc2F)cc1 (stereo not drawn)" measured_result=-7.21
molecule=COc1ccc(OC)c(-n2cc(C#N)c(N)c2C(=O)c2ccc(Cl)cc2Cl)c1 measured_result=64.8

---

test system: MDA-MB-468 breast; assay: NCI-60 one-dose screen, 48 h (100 = growth as untreated, 0 = no growth, -100 = all killed); details: 10 µM unless noted
Compounds without any hit were thinned out: in the full panel of roughly 83,000, 20% have a hit.
Lab note: class by growth, see band A: < 10%; band B: ≥ 10% and < 80%; band C: ≥ 80%

molecule=CCCCCCC/C=N/NC(=O)c1ccc(-n2cc(-c3ccccc3)nn2)cc1 assigned_class="band C"
molecule=COc1cccc(-c2nc3sccn3c2-c2ccnc(NCCNC(=O)Nc3cccc(C(F)(F)F)c3)n2)c1 assigned_class="band B"
molecule="CC(=O)ON1CCCC(P(=O)(OCOC(=O)C(C)(C)C)OCOC(=O)C(C)(C)C)C1=O (stereo unspecified)" assigned_class="band A"
molecule=Oc1c(I)cc(-c2nc3ccccc3s2)cc1CN(Cc1ccccn1)Cc1ccccn1 assigned_class="band A"
molecule=CNCc1cccc2c1OCCOCCOCCN(C)S(=O)(=O)c1ccc(cc1)-c1cnc(N)c(n1)C(=O)N2 assigned_class="band B"
molecule=O=C(CSc1nnc(-c2cccs2)n1-c1ccccc1)Nc1ccccc1F assigned_class="band B"
molecule=CC1(C)CC(=O)NC1=O assigned_class="band C"
molecule=CCCCSC1=C(Cl)CN(c2ccccc2)C1=O assigned_class="band C"
molecule=CSc1ccc2c(c1)c(CCN)c(C)n2Cc1ccc(Cl)c(Cl)c1 assigned_class="band A"
molecule=O=C(Nc1ccc(Cl)c(C(F)(F)F)c1)Nc1ccc(-c2cccnc2)cc1N1CCC(CO)CC1 assigned_class="band B"

---

tested on: OVCAR-4 ovarian; experiment: NCI-60 one-dose screen, 48 h; conditions: 10 µM
The panel holds about 83,000 compounds, 20% with a hit somewhere; the sample as a whole holds those more often. The source made the active and inactive calls. How the source made its calls: active means growth percent below 10; inactive means the rest.
Possible outcomes: TRUE = active, FALSE = inactive

molecule=COc1cc(Nc2nc(O)c(/C=C3\C=Nc4ccccc43)s2)cc(OC)c1OC tested_on="OVCAR-4 ovarian" assigned_class=TRUE
molecule="Cc1ccc2sc3c(c2c1)Oc1nc[nH]c(=O)c1C3c1cccc(F)c1 (centres undefined)" tested_on="OVCAR-4 ovarian" assigned_class=FALSE
molecule=Cc1ccc2c(c1)C(=O)/C(=C/c1c[nH]c3ccccc13)S2 tested_on="OVCAR-4 ovarian" assigned_class=FALSE
molecule=CCOc1ccc(/C=N/NC(=O)Cn2nc(Cc3ccc(OC)cc3)c3onc(C)c3c2=O)cc1 tested_on="OVCAR-4 ovarian" assigned_class=FALSE
molecule=Fc1ccc(/C=C/c2nc3ccccc3n3c(-c4ccc(Cl)cc4)nnc23)cc1 tested_on="OVCAR-4 ovarian" assigned_class=FALSE
molecule=COc1cccc(C(=O)CSc2nc(-c3ccc(OCc4ccccc4)c(OC)c3)c(C#N)c(=O)[nH]2)c1 tested_on="OVCAR-4 ovarian" assigned_class=FALSE
molecule="COc1ccc(C2c3sc4ccc(C)cc4c3Oc3nc(N)nc(N)c32)cc1 (centres undefined)" tested_on="OVCAR-4 ovarian" assigned_class=FALSE
molecule=O=[N+]([O-])c1cccc(-c2nnc3c(/C=C/c4ccccc4O)nc4ccccc4n23)c1 tested_on="OVCAR-4 ovarian" assigned_class=FALSE
molecule=C#C[C@]1(O)CC[C@H]2[C@@H]3CC=C4c5sc(Nc6cc(C)cc(C)n6)nc5CC[C@]4(C)[C@H]3CC[C@@]21C tested_on="OVCAR-4 ovarian" assigned_class=FALSE
molecule=O=C1S/C(=C\c2ccc([N+](=O)[O-])cc2)C(=O)N1CCN1CCCCC1 tested_on="OVCAR-4 ovarian" assigned_class=FALSE
molecule="COc1cc(C2CC(c3ccc(Oc4ccc(Cl)cc4)cc3)=NN2c2nc(-c3ccc(Cl)cc3)c(C#N)c(N3CCOCC3)n2)cc(OC)c1OC (centres undefined)" tested_on="OVCAR-4 ovarian" assigned_class=FALSE
molecule=Nc1nnc(-c2c[nH]c3ncc(Br)cc23)c(-c2c[nH]c3ccc(Br)cc23)n1 tested_on="OVCAR-4 ovarian" assigned_class=FALSE
molecule=COc1ccc(-n2c(SCC(=O)NNS(=O)(=O)c3ccccc3)nc3ccc(Cl)cc3c2=O)cc1 tested_on="OVCAR-4 ovarian" assigned_class=FALSE
molecule=CCn1c(SCC(=O)Nc2ccc(-c3nc4ccccc4[nH]3)cc2)nc2ccccc2c1=O tested_on="OVCAR-4 ovarian" assigned_class=TRUE
molecule=Cn1cc(/C=C(/SS/C(=C/c2cn(C)c3cccc(C(=O)O)c23)C(=O)O)C(=O)O)c2c(C(=O)O)cccc21 tested_on="OVCAR-4 ovarian" assigned_class=FALSE
molecule=O=C(Nc1ccc(Oc2ncnc3scc(Nc4n[nH]c(=S)s4)c23)cc1)C1(C(=O)Nc2cccc(C(F)(F)F)c2)CC1 tested_on="OVCAR-4 ovarian" assigned_class=FALSE
molecule=O=C(c1ccccc1)c1ccc2nc(-c3ccccc3Br)[nH]c2c1 tested_on="OVCAR-4 ovarian" assigned_class=TRUE
molecule=COc1ccc(C(=O)COc2ccc(NC(=O)Nc3ccc(Cl)c(C(F)(F)F)c3)cc2)cc1 tested_on="OVCAR-4 ovarian" assigned_class=FALSE
molecule=Cn1cc(-c2nc(N)nnc2-c2c[nH]c3ccccc23)c2cc(Br)cnc21 tested_on="OVCAR-4 ovarian" assigned_class=FALSE
